- TESTED_SYSTEM: Human recombinant PDE2A (hPDE2A) (Homo sapiens)
- Construct: His tag (inferred from metal chelate purification); made in house; host or cells: Sf9 insect cells (baculovirus)
- TEST_SUMMARY: In vitro assay PDE2A (SPA, 3H-cGMP hydrolysis)
- Assay type: biochemical
- REPORTED_CONDITIONS: human recombinant PDE2A, 10 μM cGMP substrate; read-out: hPDE2A pIC50 (converted)
QUANTITY_MEASURED: IC50 (nM)

In the examples that follow, each entry is paired with its recorded IC50.
Enquiry: Tell me the measured IC50 of C[C@@H]1CCN(C(=O)c2ccc(C(F)(F)F)nc2Cl)C[C@H]1c1cc(C(F)F)nc2ncnn12 , please.
Return: 135

Enquiry: Tell me the measured IC50 of C[C@@H]1CCN(C(=O)c2cc3ccccc3o2)C[C@H]1c1cc(C(F)F)nc2ncnn12 , please.
Return: 0.407

Enquiry: Tell me the measured IC50 of COc1cc(C(=O)N2CC[C@@H](C)[C@H](c3cc(C(F)F)nc4ncnn34)C2)nc2ccccc12 , please.
Return: 2.09

Enquiry: Tell me the measured IC50 of C[C@@H]1CCN(C(=O)c2cnn(C)c2)C[C@H]1c1cc(C(F)F)nc2ncnn12 , please.
Return: 9.55

Enquiry: Tell me the measured IC50 of C[C@@H]1CCN(C(=O)c2cnc(Cl)c(Cl)c2)C[C@H]1c1cc(C(F)F)nc2ncnn12 , please.
Return: 1.58

Enquiry: Tell me the measured IC50 of C[C@@H]1CCN(C(=O)c2ccc3cc[nH]c3c2)C[C@H]1c1cc(C(F)F)nc2ncnn12 , please.
Return: 0.891

Enquiry: Tell me the measured IC50 of COc1c(C)cc(C(=O)N2CC[C@@H](C)[C@H](c3cc(C(F)F)nc4ncnn34)C2)cc1C , please.
Return: 0.457

Enquiry: Tell me the measured IC50 of C[C@@H]1CCN(C(=O)c2cnc3n2CCCC3)C[C@H]1c1cc(C(F)F)nc2ncnn12 , please.
Return: 21.4

P: COc1c(F)cc(C(=O)N2CC[C@@H](C)[C@H](c3cc(C(F)F)nc4ncnn34)C2)cc1F
Q: Cc1cc([C@H]2CN(C(=O)c3ccc4nccn4c3)CC[C@@H]2C)n2ncnc2n1
Enquiry: Between P and Q , whose measured IC50 reads higher? Identify your pick by its label.
Return: Q

A: Cc1cc(C(=O)N2CC[C@@H](C)[C@](F)(c3cc(C(F)F)nc4ncnn34)C2)cc(C)n1
B: CCCC[C@H]1CCN(C(=O)c2cc(C)nc(C)c2)C[C@@H]1c1cc(C(F)F)nc2ncnn12 (single isomer, unassigned)
Enquiry: Lowest IC50? choose A or B Identify your pick by its label.
Return: B

a: C[C@@H]1CCN(C(=O)c2ccncc2N)C[C@H]1c1cc(C(F)F)nc2ncnn12
b: C[C@@H]1CCN(C(=O)c2cncn2C)C[C@H]1c1cc(C(F)F)nc2ncnn12
Enquiry: Between a and b , whose measured IC50 reads higher? Identify your pick by its label.
Return: b

----------
- TESTED_SYSTEM: Human recombinant PDE2A (hPDE2A) (Homo sapiens, UniProt O00408)
- Construct: His tag (inferred from metal chelate purification); made in house; host or cells: Sf9 insect cells (baculovirus)
- Sequence (O00408 whole entry): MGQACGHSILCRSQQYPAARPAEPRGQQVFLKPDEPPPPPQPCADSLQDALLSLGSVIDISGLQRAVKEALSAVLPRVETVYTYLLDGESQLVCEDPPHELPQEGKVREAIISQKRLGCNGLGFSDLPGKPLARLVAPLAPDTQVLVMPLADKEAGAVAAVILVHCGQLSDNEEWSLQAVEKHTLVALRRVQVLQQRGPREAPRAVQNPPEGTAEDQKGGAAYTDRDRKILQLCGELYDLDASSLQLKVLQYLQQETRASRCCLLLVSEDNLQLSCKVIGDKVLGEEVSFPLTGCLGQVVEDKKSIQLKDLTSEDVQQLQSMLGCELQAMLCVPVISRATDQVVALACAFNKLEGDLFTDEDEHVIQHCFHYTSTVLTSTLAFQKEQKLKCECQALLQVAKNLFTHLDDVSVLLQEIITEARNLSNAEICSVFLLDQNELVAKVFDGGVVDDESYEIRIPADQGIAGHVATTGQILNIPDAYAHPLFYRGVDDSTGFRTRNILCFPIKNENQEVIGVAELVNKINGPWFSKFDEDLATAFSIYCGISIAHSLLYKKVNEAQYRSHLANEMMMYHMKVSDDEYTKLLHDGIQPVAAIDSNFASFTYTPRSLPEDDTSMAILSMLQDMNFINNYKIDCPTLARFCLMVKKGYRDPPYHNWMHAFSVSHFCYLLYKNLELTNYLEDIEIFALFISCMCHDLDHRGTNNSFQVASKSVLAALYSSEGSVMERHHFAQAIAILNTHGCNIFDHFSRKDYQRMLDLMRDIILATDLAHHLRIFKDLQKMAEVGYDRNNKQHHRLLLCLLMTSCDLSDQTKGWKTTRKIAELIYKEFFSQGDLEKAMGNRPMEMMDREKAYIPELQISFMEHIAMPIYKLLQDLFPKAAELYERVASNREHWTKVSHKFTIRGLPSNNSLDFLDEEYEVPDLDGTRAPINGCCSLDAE
- TEST_SUMMARY: In vitro assay PDE2A (SPA, 3H-cGMP hydrolysis)
- Format: biochemical
- REPORTED_CONDITIONS: hPDE2A pIC50
Measured pIC50 accompanies every entry in the list below.
API: returns pIC50 as number; meaning -log10 of concentration in mol/L.

Enquiry: So what pIC50 did Cc1cc(C(=O)N2CC[C@H](C)[C@@H](c3cc(C(F)F)nc4ncnn34)C2)cc(C)n1 get with Human recombinant PDE2A (hPDE2A) (Homo sapiens, UniProt O00408)?
Return: 6.52

Enquiry: So what pIC50 did O=C(c1ccc2ccccc2n1)N1[C@H]2CC[C@H](c3cc(C(F)F)nc4ncnn34)[C@@H]1CC2 get with Human recombinant PDE2A (hPDE2A) (Homo sapiens, UniProt O00408)?
Return: 7.76

Enquiry: So what pIC50 did Cc1cc(C(=O)N2CC[C@@H](C)[C@H](c3cc(C(F)F)nc4ncnn34)C2)cc(Cl)n1 get with Human recombinant PDE2A (hPDE2A) (Homo sapiens, UniProt O00408)?
Return: 9.03

Enquiry: So what pIC50 did Cc1cc([C@@H]2CN(C(=O)c3ccnc(Cl)c3)CC[C@H]2C)n2ncnc2n1 get with Human recombinant PDE2A (hPDE2A) (Homo sapiens, UniProt O00408)?
Return: 8.49

Enquiry: So what pIC50 did C[C@@H]1CCN(C(=O)c2cc(C(C)(C)C)cc(C(C)(C)C)c2)C[C@H]1c1cc(C(F)F)nc2ncnn12 get with Human recombinant PDE2A (hPDE2A) (Homo sapiens, UniProt O00408)?
Return: 6.37

Further cases:
Enquiry: So what pIC50 did Cc1cc(C#N)cc(C(=O)N2CC[C@@H](C)[C@H](c3cc(C(F)F)nc4ncnn34)C2)c1 get with Human recombinant PDE2A (hPDE2A) (Homo sapiens, UniProt O00408)?
Return: 8.61

----------
- TESTED_SYSTEM: Human recombinant PDE3A (hPDE3A) (Homo sapiens, UniProt Q14432)
- Construct: purchased Scottish Biomedical; host or cells: Sf9 insect cells
- Sequence (Q14432 whole entry): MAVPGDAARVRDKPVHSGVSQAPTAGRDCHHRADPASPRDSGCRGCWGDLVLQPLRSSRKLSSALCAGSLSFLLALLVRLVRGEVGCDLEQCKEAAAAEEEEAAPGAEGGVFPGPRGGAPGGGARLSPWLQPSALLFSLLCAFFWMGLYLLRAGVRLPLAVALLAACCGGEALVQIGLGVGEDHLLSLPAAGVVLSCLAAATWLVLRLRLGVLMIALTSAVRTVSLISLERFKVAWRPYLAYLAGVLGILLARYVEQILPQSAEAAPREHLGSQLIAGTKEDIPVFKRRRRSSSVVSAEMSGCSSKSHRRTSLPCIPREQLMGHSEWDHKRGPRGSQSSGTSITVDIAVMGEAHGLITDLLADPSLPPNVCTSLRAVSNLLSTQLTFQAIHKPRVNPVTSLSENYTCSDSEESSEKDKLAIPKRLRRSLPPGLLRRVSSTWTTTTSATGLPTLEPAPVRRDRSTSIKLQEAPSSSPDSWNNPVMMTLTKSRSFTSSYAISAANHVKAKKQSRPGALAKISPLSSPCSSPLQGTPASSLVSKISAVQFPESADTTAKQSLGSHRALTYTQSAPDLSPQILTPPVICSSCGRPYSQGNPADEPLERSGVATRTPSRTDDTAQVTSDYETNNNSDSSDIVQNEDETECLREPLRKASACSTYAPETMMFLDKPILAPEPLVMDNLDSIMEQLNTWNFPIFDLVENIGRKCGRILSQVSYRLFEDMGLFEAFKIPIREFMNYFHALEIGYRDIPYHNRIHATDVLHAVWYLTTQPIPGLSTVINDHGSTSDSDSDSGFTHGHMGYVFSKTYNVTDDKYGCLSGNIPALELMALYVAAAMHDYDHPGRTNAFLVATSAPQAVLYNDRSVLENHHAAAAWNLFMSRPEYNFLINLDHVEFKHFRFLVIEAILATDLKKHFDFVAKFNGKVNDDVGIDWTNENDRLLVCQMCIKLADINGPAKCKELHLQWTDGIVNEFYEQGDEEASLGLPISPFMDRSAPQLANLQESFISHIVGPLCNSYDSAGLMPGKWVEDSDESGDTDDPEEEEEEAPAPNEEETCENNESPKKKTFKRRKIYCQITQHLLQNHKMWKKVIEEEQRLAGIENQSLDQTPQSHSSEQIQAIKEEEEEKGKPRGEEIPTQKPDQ
- TEST_SUMMARY: In vitro assay PDE3A (SPA, 3H-cAMP hydrolysis);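 note: the method names PDE3A and the table heading PDE3B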
- Format: biochemical
- REPORTED_CONDITIONS: hPDE3B pIC50; read-out: pIC50 (converted)
QUANTITY_MEASURED: IC50 (nM)

In the examples that follow, each entry is paired with its recorded IC50.
Enquiry: Tell me the measured IC50 of Cc1cc(C(=O)N2CC[C@@H](C)[C@H](c3cc(C(F)F)nc4ncnn34)C2)cc(C)c1Cl [Compound 76] , please.
Return: 1230

Enquiry: Tell me the measured IC50 of CCn1ccc2cc(C(=O)N3[C@H]4CC[C@H](c5cc(C(F)F)nc6ncnn56)[C@@H]3CC4)ccc21 [Compound 363] , please.
Return: 617

Enquiry: Tell me the measured IC50 of Cc1cc(Cl)cc(C(=O)N2[C@H]3CC[C@H](c4cc(C(F)F)nc5ncnn45)[C@@H]2CC3)c1 [Compound 339] , please.
Return: 4790

a: C[C@@H]1CCN(C(=O)c2cc(C3CC3)ncc2F)C[C@H]1c1cc(C(F)F)nc2ncnn12 [Compound 269]
b: COc1c(C)cc(C(=O)N2CC[C@@H](C)[C@H](c3cc(C(F)F)nc4ncnn34)C2)cc1C [Compound 77]
Enquiry: Between a and b , whose measured IC50 reads higher? Identify your pick by its label.
Return: a

----------
- TESTED_SYSTEM: Human recombinant PDE10A (hPDE10A) (Homo sapiens, UniProt Q9Y233)
- Construct: His tag (inferred from metal chelate purification); made in house; host or cells: Sf9 insect cells (baculovirus)
- Sequence (Q9Y233 267-1055): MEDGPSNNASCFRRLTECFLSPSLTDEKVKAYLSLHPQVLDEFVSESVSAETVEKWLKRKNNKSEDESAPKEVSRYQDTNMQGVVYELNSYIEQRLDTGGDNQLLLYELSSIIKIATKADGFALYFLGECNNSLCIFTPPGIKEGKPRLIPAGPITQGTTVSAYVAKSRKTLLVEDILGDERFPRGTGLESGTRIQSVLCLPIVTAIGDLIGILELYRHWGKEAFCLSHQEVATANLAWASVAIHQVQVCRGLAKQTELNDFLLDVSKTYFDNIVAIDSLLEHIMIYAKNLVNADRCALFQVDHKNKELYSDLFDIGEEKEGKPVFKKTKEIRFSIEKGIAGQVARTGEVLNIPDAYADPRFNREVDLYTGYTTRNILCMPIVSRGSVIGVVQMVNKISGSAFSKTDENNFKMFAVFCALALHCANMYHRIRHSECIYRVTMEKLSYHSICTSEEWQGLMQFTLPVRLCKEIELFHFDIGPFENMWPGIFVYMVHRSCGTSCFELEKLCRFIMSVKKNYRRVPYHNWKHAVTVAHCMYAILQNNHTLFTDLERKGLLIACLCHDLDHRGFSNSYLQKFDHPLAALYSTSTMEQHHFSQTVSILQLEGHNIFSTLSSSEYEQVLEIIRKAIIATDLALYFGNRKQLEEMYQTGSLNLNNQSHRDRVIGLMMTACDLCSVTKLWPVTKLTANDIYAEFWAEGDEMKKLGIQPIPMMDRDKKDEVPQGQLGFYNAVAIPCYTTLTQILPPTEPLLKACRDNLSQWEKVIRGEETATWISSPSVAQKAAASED
- TEST_SUMMARY: In vitro assay PDE10A, human clone (SPA, 3H-cAMP hydrolysis)
- Assay type: biochemical
- REPORTED_CONDITIONS: human clone by default (no (r) mark); read-out: hPDE10A2 or rPDE10A2 pIC50 (converted)
- Description: Rat recombinant PDE10A (rPDE10A2) was expressed in Sf9 cells using a recombinant rPDE10A baculovirus construct. […] Tested compounds were dissolved and diluted in 100% DMSO to a concentration 100 fold of the final concentration in the assay. […] After sedimentation of the beads during 30 minutes the radioactivity was measured in a Perkin Elmer Topcount scintillation counter and results were expressed as cpm. […]
QUANTITY_MEASURED: IC50 (nM)

Enquiry: Tell me the measured IC50 of C[C@@H]1CCN(C(=O)c2cnc(CF)cn2)C[C@H]1c1cc(C(F)F)nc2ncnn12 , please.
Return: 7760

1: C[C@@H]1CCN(C(=O)c2cccc(OC(F)(F)F)c2F)C[C@H]1c1cc(C(F)F)nc2ncnn12
2: Cc1cc([C@@H]2CN(C(=O)c3cc(C4CC4)ncc3Cl)CC[C@H]2C)n2ncnc2n1
Enquiry: Between 1 and 2 , whose measured IC50 reads higher? Identify your pick by its label.
Return: 1
(1: 269 nM, 2: 63.1 nM)

----------
- TESTED_SYSTEM: Human recombinant PDE10A (hPDE10A) (Homo sapiens)
- Construct: His tag (inferred from metal chelate purification); made in house; host or cells: Sf9 insect cells (baculovirus)
- TEST_SUMMARY: In vitro assay PDE10A, human clone (SPA, 3H-cAMP hydrolysis)
- Type: biochemical
- REPORTED_CONDITIONS: human clone (h), default; read-out: hPDE10A2 Emax
- Method: Rat recombinant PDE10A (rPDE10A2) was expressed in Sf9 cells using a recombinant rPDE10A baculovirus construct. […] Tested compounds were dissolved and diluted in 100% DMSO to a concentration 100 fold of the final concentration in the assay. […] After sedimentation of the beads during 30 minutes the radioactivity was measured in a Perkin Elmer Topcount scintillation counter and results were expressed as cpm. […]
QUANTITY_MEASURED: Emax (%)

In the examples that follow, each entry is paired with its recorded Emax.
Enquiry: Tell me the measured Emax of Cc1cc(Cl)cc(C(=O)N2CC[C@@H](C)[C@H](c3cc(C(F)F)nc4ncnn34)C2)c1 [Compound 102] , please.
Return: 95

Enquiry: Tell me the measured Emax of Cc1c(C(=O)N2[C@H]3CC[C@H](c4cc(C(F)F)nc5ncnn45)[C@@H]2CC3)oc2ccccc12 [Compound 273] , please.
Return: 96

Enquiry: Tell me the measured Emax of COc1ccc(C(=O)N2CC[C@@H](C)[C@H](c3cc(C(F)F)nc4ncnn34)C2)cn1 [Compound 196] , please.
Return: 92

Enquiry: Tell me the measured Emax of C[C@@H]1CCN(C(=O)c2cc(C3CC3)ncc2F)C[C@H]1c1cc(C(F)F)nc2ncnn12 [Compound 269] , please.
Return: 93

Enquiry: Tell me the measured Emax of Cc1cc([C@@H]2CN(C(=O)c3ccc4ncsc4c3)CC[C@H]2C)n2ncnc2n1 [Compound 2a] , please.
Return: 101

P: Cc1nc2cccc(C(=O)N3CC[C@@H](C)[C@H](c4cc(C(F)F)nc5ncnn45)C3)c2o1 [Compound 50]
Q: C[C@@H]1CCN(C(=O)c2cnccn2)C[C@H]1c1cc(C(F)F)nc2ncnn12 [Compound 257]
Enquiry: Lowest Emax? choose P or Q Identify your pick by its label.
Return: Q
(Q: 45%, P: 93%)
